Measured activation at 10 µM of individual entries
Biological target: CFTR (Homo sapiens, UniProt P13569, DEL508-508)
Construct: endogenous in cells; host or cells: primary human bronchial epithelial cells from CF subjects (F508del/MF-HBE), differentiated at air-liquid interface
Sequence (P13569 with tags, fused parts or gaps DEL508-508): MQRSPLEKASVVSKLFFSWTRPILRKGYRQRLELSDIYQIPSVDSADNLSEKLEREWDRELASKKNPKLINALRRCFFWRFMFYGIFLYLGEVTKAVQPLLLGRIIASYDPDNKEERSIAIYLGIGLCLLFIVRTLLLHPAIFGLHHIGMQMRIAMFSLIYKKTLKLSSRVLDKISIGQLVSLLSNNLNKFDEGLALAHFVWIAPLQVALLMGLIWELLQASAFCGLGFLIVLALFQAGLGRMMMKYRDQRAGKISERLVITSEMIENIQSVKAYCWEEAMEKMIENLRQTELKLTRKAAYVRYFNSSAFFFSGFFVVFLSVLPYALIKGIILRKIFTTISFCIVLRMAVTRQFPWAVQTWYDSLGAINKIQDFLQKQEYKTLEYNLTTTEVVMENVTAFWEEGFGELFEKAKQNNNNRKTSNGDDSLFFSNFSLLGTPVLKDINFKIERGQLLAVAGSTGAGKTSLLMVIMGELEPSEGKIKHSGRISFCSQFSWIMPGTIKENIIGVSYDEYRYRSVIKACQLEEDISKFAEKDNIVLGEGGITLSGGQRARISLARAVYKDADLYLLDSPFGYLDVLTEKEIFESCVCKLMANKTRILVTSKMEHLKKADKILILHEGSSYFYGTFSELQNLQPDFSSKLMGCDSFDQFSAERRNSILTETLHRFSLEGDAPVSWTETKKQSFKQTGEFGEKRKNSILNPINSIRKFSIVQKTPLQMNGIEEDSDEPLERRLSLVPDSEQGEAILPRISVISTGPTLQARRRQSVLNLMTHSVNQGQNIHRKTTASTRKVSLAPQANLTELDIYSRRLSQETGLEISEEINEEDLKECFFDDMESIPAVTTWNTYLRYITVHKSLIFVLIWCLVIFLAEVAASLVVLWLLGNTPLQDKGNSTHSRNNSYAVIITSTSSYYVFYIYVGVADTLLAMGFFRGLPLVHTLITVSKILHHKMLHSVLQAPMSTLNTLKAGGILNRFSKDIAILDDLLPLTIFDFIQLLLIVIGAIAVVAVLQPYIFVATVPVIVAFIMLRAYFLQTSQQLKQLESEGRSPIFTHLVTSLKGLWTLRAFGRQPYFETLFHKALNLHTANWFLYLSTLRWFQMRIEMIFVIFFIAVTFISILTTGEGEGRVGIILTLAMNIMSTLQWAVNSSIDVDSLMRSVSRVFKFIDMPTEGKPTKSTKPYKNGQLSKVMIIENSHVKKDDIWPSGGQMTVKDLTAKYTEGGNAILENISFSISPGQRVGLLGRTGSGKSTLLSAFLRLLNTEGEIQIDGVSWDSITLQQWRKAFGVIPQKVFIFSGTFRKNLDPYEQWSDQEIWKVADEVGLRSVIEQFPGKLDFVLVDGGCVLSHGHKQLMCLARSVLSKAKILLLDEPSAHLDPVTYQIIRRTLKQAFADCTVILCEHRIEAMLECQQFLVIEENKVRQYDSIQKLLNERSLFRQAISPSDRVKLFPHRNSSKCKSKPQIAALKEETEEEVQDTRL
Test: HBE assay: Ussing chamber assay of CFTR-mediated short-circuit currents
Format: cell-based
Conditions: Table 12; at 10 μM; read-out: HBE Activity at 10 μM (%)

Would you please look over these solved cases?
Cc1cccc(C)c1-c1cc2nc(n1)NS(=O)(=O)c1cccc(c1)C(=O)N(Cc1ccc(C3=CCCCC3)nn1)[C@H](CC(C)(C)C)CO2 [Compound 237]	> 600%
Cc1cccc(C)c1-c1cc2nc(n1)NS(=O)(=O)c1cccc(c1)C(=O)N(Cc1cncc(N(C)C(C(=O)O)C(C)C)n1)[C@H](CC(C)(C)C)CO2 (stereo partly drawn) [Compound 243]	> 600%

Data request: Need activation at 10 µM of CC(C)=C(C)c1cccc(CN2C(=O)c3cccc(c3)S(=O)(=O)Nc3nc(cc(-c4c(C)cccc4C)n3)OC[C@H]2CC(C)(C)C)n1 [Compound 577] , thanks.
Data returned: > 600%
